measured-target: Sortilin (Homo sapiens)
Sequence (Q99523 whole entry): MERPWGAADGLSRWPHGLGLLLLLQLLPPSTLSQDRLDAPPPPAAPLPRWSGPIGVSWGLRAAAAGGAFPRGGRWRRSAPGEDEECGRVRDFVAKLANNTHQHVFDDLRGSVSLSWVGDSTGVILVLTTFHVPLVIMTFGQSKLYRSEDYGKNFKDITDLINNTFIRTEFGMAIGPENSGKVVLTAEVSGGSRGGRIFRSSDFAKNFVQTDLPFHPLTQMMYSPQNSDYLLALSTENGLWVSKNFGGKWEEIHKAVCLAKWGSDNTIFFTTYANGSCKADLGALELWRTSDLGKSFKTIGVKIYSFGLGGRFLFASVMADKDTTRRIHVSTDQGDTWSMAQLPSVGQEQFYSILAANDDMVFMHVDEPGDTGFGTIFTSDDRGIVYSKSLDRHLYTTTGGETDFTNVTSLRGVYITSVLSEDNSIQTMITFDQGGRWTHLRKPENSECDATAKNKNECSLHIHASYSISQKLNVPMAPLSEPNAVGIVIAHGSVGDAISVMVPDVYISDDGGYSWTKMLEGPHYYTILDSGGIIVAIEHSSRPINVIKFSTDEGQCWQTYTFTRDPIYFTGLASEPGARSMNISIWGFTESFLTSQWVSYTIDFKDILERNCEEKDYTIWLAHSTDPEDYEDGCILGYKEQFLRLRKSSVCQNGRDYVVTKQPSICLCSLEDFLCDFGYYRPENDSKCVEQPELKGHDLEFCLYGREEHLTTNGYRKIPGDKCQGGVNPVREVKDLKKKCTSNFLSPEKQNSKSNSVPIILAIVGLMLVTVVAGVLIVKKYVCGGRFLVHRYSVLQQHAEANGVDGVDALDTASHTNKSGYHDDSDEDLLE
experimental-details: Inhibition of GFP-tagged Sortilin (unknown origin) expressed in HEK293T cells after 42 hrs by FACS analysis

[
  {
    "compound-smiles": "C=C1CN(S(=O)(=O)c2ccc(C)cc2)CCCN(Cc2ccccc2)CCCN(S(=O)(=O)c2ccc(C)cc2)C1",
    "IC50 (µM)": 0.38
  }
]

----------
measured-target: T-cell surface glycoprotein CD4 (Homo sapiens, UniProt P01730)
experimental-details: Inhibition of FITC-tagged human CD4 expressed in human SUP-T1 cells after 72 hrs by FACS analysis
readout-name: IC50 (nM)

[
  {
    "compound-smiles": "C=C1CN(S(=O)(=O)c2ccc(C)cc2)CCCN(Cc2ccccc2)CCCN(S(=O)(=O)c2ccc(C)cc2)C1",
    "readout-name": "IC50",
    "recorded-value": 210
  }
]

Sourced from ChEMBL document CHEMBL4627347
